System Name: JAK2 (Homo sapiens (Human), UniProt O60674)
Sequence (O60674 whole entry): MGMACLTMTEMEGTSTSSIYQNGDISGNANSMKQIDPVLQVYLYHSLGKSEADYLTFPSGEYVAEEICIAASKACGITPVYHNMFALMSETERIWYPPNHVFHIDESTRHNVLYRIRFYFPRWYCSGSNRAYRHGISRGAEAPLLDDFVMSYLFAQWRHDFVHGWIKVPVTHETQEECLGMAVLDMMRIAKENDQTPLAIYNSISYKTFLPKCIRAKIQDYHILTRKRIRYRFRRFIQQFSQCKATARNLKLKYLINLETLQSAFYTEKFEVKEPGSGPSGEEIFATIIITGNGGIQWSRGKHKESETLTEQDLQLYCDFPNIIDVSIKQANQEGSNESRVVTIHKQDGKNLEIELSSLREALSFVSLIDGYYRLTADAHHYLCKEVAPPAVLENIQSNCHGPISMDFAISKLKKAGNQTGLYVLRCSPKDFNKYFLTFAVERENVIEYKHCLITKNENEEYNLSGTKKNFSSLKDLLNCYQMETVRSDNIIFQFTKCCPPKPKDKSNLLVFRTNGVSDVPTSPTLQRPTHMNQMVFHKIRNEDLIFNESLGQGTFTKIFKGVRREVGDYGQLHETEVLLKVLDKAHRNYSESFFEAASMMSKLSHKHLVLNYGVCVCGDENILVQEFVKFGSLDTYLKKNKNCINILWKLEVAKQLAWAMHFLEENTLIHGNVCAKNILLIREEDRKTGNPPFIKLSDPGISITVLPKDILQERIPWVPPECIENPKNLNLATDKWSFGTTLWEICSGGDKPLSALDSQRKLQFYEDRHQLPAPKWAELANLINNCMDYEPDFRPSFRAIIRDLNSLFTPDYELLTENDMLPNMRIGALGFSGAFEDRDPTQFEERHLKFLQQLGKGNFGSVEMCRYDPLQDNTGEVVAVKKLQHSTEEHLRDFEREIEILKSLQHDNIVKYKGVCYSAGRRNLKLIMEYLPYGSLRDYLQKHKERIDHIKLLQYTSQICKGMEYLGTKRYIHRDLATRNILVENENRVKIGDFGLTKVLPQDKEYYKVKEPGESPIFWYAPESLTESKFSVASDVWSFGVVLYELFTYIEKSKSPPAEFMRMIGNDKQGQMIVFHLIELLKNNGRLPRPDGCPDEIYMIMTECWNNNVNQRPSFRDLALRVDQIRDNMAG
Protocol Notes: JAK2 enzymatic inhibition assay (ADP-Glo luminescence)
Format: biochemical
Endpoint Name: IC50 (nM)

CC(C)CS(=O)(=O)N1CC(CC#N)(n2cc(-c3ccnc4[nH]ccc34)cn2)C1 : 0.83
CN(C)S(=O)(=O)N1CC(CC#N)(n2cc(-c3c(C#N)cnc4[nH]ccc34)cn2)C1 : 1.66
CCS(=O)(=O)N1CC(CC#N)(n2cc(-c3ccnc4[nH]ccc34)c(Cl)n2)C1 : 1.4
CCS(=O)(=O)N1CC([C@@H](C)C#N)(n2cc(-c3c(C#N)cnc4[nH]ccc34)cn2)C1 : 1.17
CCS(=O)(=O)N1CC(CC#N)(n2cc(C)c(-c3ncnc4[nH]ccc34)c2)C1 : 1.76

A. CCS(=O)(=O)N1CC(CC#N)(n2cc(-c3c(C#N)cnc4[nH]ccc34)cn2)C1
B. CC(C)S(=O)(=O)N1CC(CC#N)(n2cc(-c3c(C#N)cnc4[nH]ccc34)cn2)C1
C. CCCS(=O)(=O)N1CC(CC#N)(n2cc(-c3ccnc4[nH]ccc34)cn2)C1
// query // ascending sort on recorded IC50 The reply should contain the labels ordered as requested.
// result C, A, B
